- assay summary: 2D NMR structural score versus reference peptide
- Type: physicochemical
- Design: key: +++ indicates the peptide is structured similarly to IGE063 (SEQ ID NO:49); + indicates the peptide is structured similarly to IGE063 (SEQ ID NO:49), but is less stable; −/+ indicates the peptide has some elements of stable structure, but the conformation differs from the reference structure (e.g., a different turn type is evident); − indicates the peptide is predominantly unstructured in aqueous solution
- particulars: reference IGE063
Where a SMILES comes first, the peptide text is derived from it. Bridges are numbered along the chain shown (N, C = ends). [ ]: non-standard residue; d: D form.

[
  {
    "molecule": "CSCC[C@H](NC(=O)[C@@H]1CSSC[C@H](NC(=O)[C@H](CCCNC(=N)N)NC(=O)[C@@H]2CCCN2C(=O)[C@H](CC(C)C)NC(=O)[C@@H](N)CC(N)=O)C(=O)N[C@@H]([C@@H](C)O)C(=O)N[C@@H](CCC(=O)O)C(=O)NCC(=O)N2CCC[C@H]2C(=O)N[C@@H](Cc2c[nH]c3ccccc23)C(=O)NCC(=O)N[C@@H](C)C(=O)N[C@@H](C(C)C)C(=O)N1)C(=O)O [IGE073, NLPRCTEGPWGAVCM] (H-NLPRCTEGPWGAVCM-OH; disulfide 5-14; N-terminus and C-terminus assumed)",
    "Struct. Score": "+"
  },
  {
    "molecule": "CSCC[C@H](NC(=O)[C@@H]1CSSC[C@H](NC(=O)[C@@H]2CCCN2C(=O)[C@H](CC(C)C)NC(=O)[C@H](CC(N)=O)NC(C)=O)C(=O)N[C@@H]([C@@H](C)O)C(=O)N[C@@H](CCC(=O)O)C(=O)NCC(=O)N2CCC[C@H]2C(=O)N[C@@H](Cc2c[nH]c3ccccc23)C(=O)NCC(=O)N[C@@H](Cc2c[nH]c3ccccc23)C(=O)N[C@@H](C(C)C)C(=O)N1)C(=O)O [IGE107, Ac-NLPCTEGPWGWVCM] (Ac-NLPCTEGPWGWVCM-OH; disulfide 4-13)",
    "Struct. Score": "+"
  },
  {
    "molecule": "CSCC[C@H](NC(=O)[C@@H]1CSSC[C@H](NC(=O)[C@H](CCCNC(=N)N)NC(=O)[C@@H]2CCCN2C(=O)[C@H](CC(C)C)NC(=O)[C@@H](N)CC(N)=O)C(=O)N[C@@H]([C@@H](C)O)C(=O)N[C@@H](CCC(=O)O)C(=O)NCC(=O)N2CCC[C@H]2C(=O)N[C@@H](C)C(=O)NCC(=O)N[C@@H](Cc2c[nH]c3ccccc23)C(=O)N[C@@H](C(C)C)C(=O)N1)C(=O)O [IGE072, NLPRCTEGPAGWVCM] (H-NLPRCTEGPAGWVCM-OH; disulfide 5-14; N-terminus and C-terminus assumed)",
    "Struct. Score": "+++"
  },
  {
    "molecule": "CSCC[C@H](NC(=O)[C@@H]1CSSC[C@H](NC(=O)[C@H](CCCNC(=N)N)NC(=O)[C@@H]2CCCN2C(=O)[C@H](CC(C)C)NC(=O)[C@H](CC(N)=O)NC(C)=O)C(=O)N[C@@H]([C@@H](C)O)C(=O)N[C@@H](CCC(=O)O)C(=O)NCC(=O)N2CCC[C@H]2C(=O)N[C@@H](Cc2c[nH]c3ccccc23)C(=O)N[C@H](CCC(=O)O)C(=O)N[C@@H](Cc2c[nH]c3ccccc23)C(=O)N[C@@H](C(C)C)C(=O)N1)C(=O)O [IGE114, Ac-NLPRCTEGPWeWVCM] (Ac-NLPRCTEGPW[dE]WVCM-OH; disulfide 5-14)",
    "Struct. Score": "+++"
  }
]
